- Assay remarks: MRT (0 to t) in male Sprague-Dawley rat at 20 mg/kg, po measured upto 24 hrs by LC-MS/MS analysis
- Assay type: ADME, organism-based
- Run conditions: in vivo
Assay readout: MRT last at 24 h (h)

In [3]: df
Out[3]:
                                   compound  reported_value
0  COc1cc(Nc2nc(N3CCN(CCOCCNc4cccc5c4C(=O)N(C4CCC(=O)NC4=O)C5=O)CC3)ncc2F)ccc1NC(=O)c1ccc(C2=CCCC2)s1 (stereo unspecified)            2.48

* * *

# IC50 at 6 days annotations
- Assay remarks: Cytotoxicity against HEK293T cells assessed as inhibition in cell growth measured after 6 days by MTT assay
- Assay type: toxicity, cell-based, HEK-293T
- Run conditions: human, HEK293T cells

Molecule	IC50 at 6 days
COc1cc(Nc2nc(N3CCN(CCOCCNc4cccc5c4C(=O)N(C4CCC(=O)NC4=O)C5=O)CC3)ncc2F)ccc1NC(=O)c1ccc(C2=CCCC2)s1 (configuration not stated)	> 10 µM
COc1cc(Nc2nc(N3CCN(CCOCCNc4cccc5c4C(=O)N(C4CCC(=O)N(C)C4=O)C5=O)CC3)ncc2F)ccc1NC(=O)c1ccc(C2=CCCC2)s1 (configuration not stated)	> 10 µM
